- tgt: N1rec, tetrameric recombinant N1 Neuraminidase (Influenza A virus, UniProt Q30CC2)
- protocol_summary: biochemical
parameter_measured: pIC50
Answers are plain numbers, as −log10 of the molar value.

Fill blank: measured pIC50 of the compound CCOC(=O)C1=C[C@@H](OC(CC)CC)[C@H](NC(C)=O)[C@@H](N)C1 is ____. 6.23
